The measurements presented in this section are drawn from patent US20190233498A1.

Biological target: T1, human VIP (human)
T1 construct: also called Vasoactive Intestinal Peptide
T1 peptide: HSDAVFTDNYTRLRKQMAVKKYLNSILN
Assay: SPR, Ab immobilised
readout: Kd (nM)
Express it in nM; write the number only.

Measured Kd, anti-PACAP antibody Ab16 (antibody, human IgG1, kappa, N297A, V domains shown, full-length rabbit/human chimeric antibody) VH: QSVEESGGRLVTPGTPLTLTCTVSGFSLSSAAMSWVRQAPGKGLEWIGIIDDSGNTYYASWAKARFTISKTSSTTVDLKMTSPTTEDTATYFCARGGGEFFIWGPGTLVTVSS VL: DPVLTQTPSSVSAAVGGTVTINCQSSQSVYNNKWLSWYQQKPGQSPKFLIYQASNLASGVPSRFKGSGSGTQFTLTISDLECDDGATYYCAGGYRGNVCGFGGGTEVVVKR : 260

# input for lookup
Measured Kd, anti-PACAP antibody Ab12 (antibody, human IgG1, kappa, N297A, V domains shown, full-length rabbit/human chimeric antibody) VH: QSVEESGGRLVTPGTPLTLTCTASGFSLSSYAMGWVRQAPGKGLEWIGDISTYGTTDYASWVYGRFTISRTSTTVTLKMTSLTTEDTATYFCARDYWLSLWGQGTLVTVSS VL: AAVLTQTPSPVSAAVGGTVTIKCQSSQSVYDNNALAWYQQKPGQPPKLLIYAASTLASGVPSRFSGSGSGTEFTLTISGVQCDDAATYYCLGGYYDPADNAFGGGTEVVVKR : 8.2
